Data origin, for the record: the Biogen ADME set (Fang et al. 2023)

RECORDED_METRIC: MDR1-MDCK efflux ratio

MOLECULE: CC(C)Cn1cnc2c1c(=O)[nH]c(=O)n2CC(C)C
RECORDED_METRIC: MDR1-MDCK efflux ratio
MEAS_VALUE: 1.96
//
MOLECULE: Cn1c(-c2ccccc2)cnc1NCc1ccccc1
RECORDED_METRIC: MDR1-MDCK efflux ratio
MEAS_VALUE: 0.501
//
MOLECULE: Cc1nc(CN2CCC(CNC(=O)COc3ccccc3Cl)CC2)c[nH]1
RECORDED_METRIC: MDR1-MDCK efflux ratio
MEAS_VALUE: 5.32
//
MOLECULE: CN(C)CCN(Cc1ccccc1)C(=O)CCC(=O)Nc1ncc(-c2ccccc2)n1C
RECORDED_METRIC: MDR1-MDCK efflux ratio
MEAS_VALUE: 38.2
//
MOLECULE: CCc1cnc(CN2C(=O)NC3(CCC3)C2=O)o1
RECORDED_METRIC: MDR1-MDCK efflux ratio
MEAS_VALUE: 3.63

I = Cc1cc(NC(=O)N2Cc3cc4c(cc3C3(CCCC3)C2)OCCO4)no1
II = C[C@@]12CCCN1C(=O)[C@H](C1CCCCC1)NC2=O
Req: // which entry has the larger MDR1-MDCK efflux ratio value, I or II ? When you have decided, please share the label of that item.
Resp: II
